# target: VEGF (R&D systems, Minneapolis, Minn.) (UniProt P15692-4 27-191, limits assumed)
# Sequence (P15692 other isoform, or with tags, fused parts or gaps limits assumed): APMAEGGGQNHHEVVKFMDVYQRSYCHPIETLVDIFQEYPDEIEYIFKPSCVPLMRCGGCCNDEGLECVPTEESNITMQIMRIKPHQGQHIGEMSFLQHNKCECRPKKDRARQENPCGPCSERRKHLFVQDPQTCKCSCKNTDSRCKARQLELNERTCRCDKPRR
# protocol.details: BIAcore SPR, improvement over WT
assay.metric: ΔKD (fold)
Unit fold implied. Number only.

Name the recorded ΔKD for 84 (antibody, human IgG1, V domains shown) VH: EVQLVESGGGLVQPGGSLRLSCAASGYTFTFYGMNWVRQAPGKGLEWVGWINTYTGEPTYAADFKRRFTFSLDTSKSTAYLQMNSLRAEDTAVYYCAKYPPYEGSSHWYFDVWGQGTLVTVSS VL: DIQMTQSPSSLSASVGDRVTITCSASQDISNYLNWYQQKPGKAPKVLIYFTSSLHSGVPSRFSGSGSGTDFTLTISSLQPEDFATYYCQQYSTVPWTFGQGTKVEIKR . 15.3

Could you do the same for 85 (antibody, human IgG1, V domains shown) VH: EVQLVESGGGLVQPGGSLRLSCAASGYTFTFYGMNWVRQAPGKGLEWVGWINTYTGEPTYAADFKRRFTFSLDTSKSTAYLQMNSLRAEDTAVYYCAKYPEYEGSSHWYFDVWGQGTLVTVSS VL: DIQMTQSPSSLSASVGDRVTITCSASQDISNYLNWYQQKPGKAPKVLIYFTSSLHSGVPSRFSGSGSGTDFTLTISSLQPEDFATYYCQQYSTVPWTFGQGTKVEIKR , please? 14.1

Just for reference, patent US20140154255A1 is where these values come from.
